Please provide measured mGluR5/mGluR1 for the entries that follow.
tested-on: mGluR1 (Homo sapiens (Human), UniProt Q13255)
Sequence (Q13255 19-1194): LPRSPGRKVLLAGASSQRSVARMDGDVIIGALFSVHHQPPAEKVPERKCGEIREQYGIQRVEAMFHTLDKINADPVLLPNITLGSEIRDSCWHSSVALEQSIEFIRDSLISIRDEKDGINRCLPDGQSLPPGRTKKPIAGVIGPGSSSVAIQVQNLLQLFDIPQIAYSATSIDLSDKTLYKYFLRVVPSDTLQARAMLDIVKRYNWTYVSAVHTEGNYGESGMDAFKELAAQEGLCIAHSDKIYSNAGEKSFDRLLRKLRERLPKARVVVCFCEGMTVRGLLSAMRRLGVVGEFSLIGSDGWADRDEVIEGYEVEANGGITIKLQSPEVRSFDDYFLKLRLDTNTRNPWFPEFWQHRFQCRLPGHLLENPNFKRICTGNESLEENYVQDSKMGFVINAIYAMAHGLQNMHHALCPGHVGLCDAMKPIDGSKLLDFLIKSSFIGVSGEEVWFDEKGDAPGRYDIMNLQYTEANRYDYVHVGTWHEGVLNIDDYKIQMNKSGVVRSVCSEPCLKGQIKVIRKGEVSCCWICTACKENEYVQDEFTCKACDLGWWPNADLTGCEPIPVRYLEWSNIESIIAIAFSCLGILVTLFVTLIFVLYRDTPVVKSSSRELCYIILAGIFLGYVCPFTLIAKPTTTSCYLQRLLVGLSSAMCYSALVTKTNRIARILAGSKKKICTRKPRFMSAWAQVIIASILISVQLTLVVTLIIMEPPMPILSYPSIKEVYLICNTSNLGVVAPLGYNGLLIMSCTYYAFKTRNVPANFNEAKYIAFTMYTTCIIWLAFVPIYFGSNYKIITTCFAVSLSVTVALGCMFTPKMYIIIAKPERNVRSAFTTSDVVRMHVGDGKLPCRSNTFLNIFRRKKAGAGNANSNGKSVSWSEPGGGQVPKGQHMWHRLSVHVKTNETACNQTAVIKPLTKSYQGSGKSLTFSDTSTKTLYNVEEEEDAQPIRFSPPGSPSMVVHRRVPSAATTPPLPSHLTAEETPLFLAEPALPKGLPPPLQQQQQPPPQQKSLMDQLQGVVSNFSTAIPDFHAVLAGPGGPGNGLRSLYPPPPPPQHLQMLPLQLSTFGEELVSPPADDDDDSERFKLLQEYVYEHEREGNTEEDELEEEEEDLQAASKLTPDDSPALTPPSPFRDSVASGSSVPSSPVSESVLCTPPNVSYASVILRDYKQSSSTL
assay-overview: mGluR5/1 selectivity test, HEK293/mGluR1 cell line, Fluo-8 calcium
Assay type: cell-based
details: selectivity ratio of IC50 values

Lookup: Provide mGluR5/mGluR1, tested on mGluR1 (Homo sapiens (Human), UniProt Q13255), for `O=C(c1cc(C#Cc2ccccn2)ccc1F)N1CCc2ccccc2C1` .
Found: >6601

Lookup: Specify the recorded mGluR5/mGluR1 for `O=C(Nc1cccnc1)c1cc(C#Cc2ccccn2)ccc1F` , system: mGluR1 (Homo sapiens (Human), UniProt Q13255).
Found: >5155

Lookup: Report measured mGluR5/mGluR1 on mGluR1 (Homo sapiens (Human), UniProt Q13255); entry: `O=C(Nc1ccc(F)cc1)c1cc(C#Cc2ccccn2)ccc1F`
Found: >7194

Lookup: Please tell me the measured mGluR5/mGluR1 for Cc1nc(C#Cc2ccc(F)c(C(=O)N3CCc4ccccc4C3C)c2)cs1 (stereo not shown) ; system: mGluR1 (Homo sapiens (Human), UniProt Q13255).
Found: >2632

Lookup: Specify the recorded mGluR5/mGluR1 for `O=C(Nc1ccc(F)cc1)c1cc(C#Cc2ccccn2)ccc1Cl` , system: mGluR1 (Homo sapiens (Human), UniProt Q13255).
Found: >4929

Lookup: Consider the compound `Cc1nc(C#Cc2ccc(F)c(C(=O)Nc3ccc(F)cc3)c2)cs1` tested on mGluR1 (Homo sapiens (Human), UniProt Q13255); state its mGluR5/mGluR1.
Found: >9091

Lookup: Quote mGluR1 (Homo sapiens (Human), UniProt Q13255) mGluR5/mGluR1 for entry `Cc1nc(C#Cc2ccc(F)c(C(=O)Nc3cccnc3)c2)cs1` .
Found: >17854

Lookup: # lookup: mGluR1 (Homo sapiens (Human), UniProt Q13255) mGluR5/mGluR1, key = `Cc1nc(C#Cc2ccc(F)c(C(=O)N3CCc4ccccc4C3)c2)cs1`
Found: >15044

Lookup: Recall the reported mGluR5/mGluR1 of `Cc1nc(C#Cc2ccc(Cl)c(C(=O)Nc3ccc(F)cc3)c2)cs1` on mGluR1 (Homo sapiens (Human), UniProt Q13255) and write it down.
Found: >13676

Lookup: Check mGluR1 (Homo sapiens (Human), UniProt Q13255) data and give mGluR5/mGluR1 for `Cc1nc(C#Cc2cccc(C(=O)Nc3ccccc3)c2)cs1` .
Found: >6757

Origin of measurements: patent US10618900B2
